tgt: NOX (NADPH oxidase) (Homo sapiens)
Construct: endogenous in cells; host or cells: HL-60 cells differentiated with 1% DMSO, used as a sonicated homogenate supernatant (A1) or as viable cells (A2)
Sequence (P04839 2-570 limits assumed): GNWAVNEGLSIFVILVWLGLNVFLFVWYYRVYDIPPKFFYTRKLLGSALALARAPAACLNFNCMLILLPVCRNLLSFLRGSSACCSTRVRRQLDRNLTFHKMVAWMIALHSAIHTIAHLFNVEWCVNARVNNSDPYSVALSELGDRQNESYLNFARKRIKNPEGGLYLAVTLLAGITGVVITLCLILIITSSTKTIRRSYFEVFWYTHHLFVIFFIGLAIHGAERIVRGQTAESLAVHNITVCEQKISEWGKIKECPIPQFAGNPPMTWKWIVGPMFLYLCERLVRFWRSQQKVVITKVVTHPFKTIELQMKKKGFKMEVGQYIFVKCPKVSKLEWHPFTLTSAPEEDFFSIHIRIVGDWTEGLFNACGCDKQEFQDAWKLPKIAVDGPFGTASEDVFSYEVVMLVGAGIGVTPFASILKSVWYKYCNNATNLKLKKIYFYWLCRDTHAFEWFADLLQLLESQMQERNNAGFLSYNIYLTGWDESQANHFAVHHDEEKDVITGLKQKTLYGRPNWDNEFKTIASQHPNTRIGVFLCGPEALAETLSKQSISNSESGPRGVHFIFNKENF
Sequence (P13498 2-195 partner limits assumed): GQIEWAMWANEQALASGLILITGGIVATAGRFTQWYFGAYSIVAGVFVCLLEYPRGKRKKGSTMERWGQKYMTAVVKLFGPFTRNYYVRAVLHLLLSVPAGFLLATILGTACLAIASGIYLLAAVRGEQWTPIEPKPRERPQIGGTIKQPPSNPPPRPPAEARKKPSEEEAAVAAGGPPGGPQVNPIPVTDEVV
measurementNotes: NOX activity measurement in a cell-free system using a homogenate of differentiated HL-60 cells (NADPH consumption, fluorometry)
Format: biochemical
testConditions: Example 4; cell-free system using a homogenate of differentiated HL-60 cells; methoxyflavonoid comparison; read-out: IC50 (μM), NOX inhibitory activity
measuredQuantity: IC50

Sample answers from the record:
| compound | IC50 |
| --- | --- |
| COc1ccc(CCC(=O)c2c(O)cc(OC)cc2O)cc1 | > 100 µM |
| COc1cccc(/C=C/C(=O)c2ccccc2O)c1OC [2,3-Dimethoxy-2′-hydroxychalcone] | > 100 µM |
| COc1cc(C2CC(=O)c3c(O)cc(O)cc3O2)cc(OC)c1OC (stereo not shown) | > 100 µM |
| COc1cc(OC)c2c(=O)c(OC)c(-c3ccc(OC)c(OC)c3)oc2c1 [KPEt-22, 3,5,7,3′,4′-Pentamethoxyflavone] | 23 µM |
| COc1ccc(-c2cc(=O)c3ccccc3o2)cc1OC [3′,4′-Dimethoxyflavone] | 15 µM |
| COc1c(O)cc2ccc(=O)oc2c1C(C)=O [8-Acetyl-6-hydroxy-7-methoxycoumarin] | > 100 µM |

Now turn to the next compound.
Read off the recorded IC50 for COc1ccc(/C=C/C(=O)c2ccccc2)cc1 [4-Methoxychalcone]
> 100 µM
